Reference source: paper PMC6858373

Recorded IMin (% Luminescence), one value per entry.
molecular target: FGF14:Nav1.6 C-tail complex (Homo sapiens, UniProt Q92915+Q9UQD0); construct: polymerase chain reaction (PCR) amplification of the FGF14 open reading frame (nt 1–855); C-terminal fragment of Nav1.6 (amino acids 1763–1976) fused with CD4ΔC-tail (amino acids 1–395); expressed in transfected cells; assay: Split-luciferase complementation assay (LCA) in Clone V double stable HEK293 cells; format: cell-based; conditions: antagonists; Clone V cells, 384-well; normalized to DMSO
Sequence (Q92915 1-252 isoform Q92915-2): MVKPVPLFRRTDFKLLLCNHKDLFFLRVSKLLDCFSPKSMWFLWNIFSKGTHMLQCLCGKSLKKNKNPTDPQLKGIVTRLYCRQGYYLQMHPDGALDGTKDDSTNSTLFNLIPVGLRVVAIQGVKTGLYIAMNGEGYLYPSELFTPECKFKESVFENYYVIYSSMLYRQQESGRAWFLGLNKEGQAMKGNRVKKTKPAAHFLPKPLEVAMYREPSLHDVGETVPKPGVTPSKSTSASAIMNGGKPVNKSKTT
Sequence (Q9UQD0 1763-1976 limits assumed): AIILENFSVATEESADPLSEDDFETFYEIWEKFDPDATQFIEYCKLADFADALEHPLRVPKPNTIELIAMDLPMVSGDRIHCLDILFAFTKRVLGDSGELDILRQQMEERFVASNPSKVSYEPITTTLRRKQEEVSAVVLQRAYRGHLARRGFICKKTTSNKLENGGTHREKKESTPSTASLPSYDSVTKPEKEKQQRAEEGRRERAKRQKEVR
reported_endpoint: IMin (% Luminescence)

molecule	experimental_value
Cc1ccc([N+](=O)[O-])cc1S(=O)(=O)N(C)/N=C/c1cnc2ccc(Br)cn12 [PIK 75, reference compound]	38.11
O=C(Nc1cccc(Nc2ncc(Br)c(NCCc3cnc[nH]3)n2)c1)N1CCCC1 [BX 912, reference compound]	37.84
O=C(NOCC1CC1)c1ccc(F)c(F)c1Nc1ccc(I)cc1Cl [CI 1040, reference compound]	46.49
CCn1c(-c2nonc2N)nc2cnc(Oc3cccc(NC(=O)c4ccc(OCCN5CCOCC5)cc4)c3)cc21 [GSK 269962 A, reference compound]	28.81
C[C@@H](Oc1cc(-c2cnn(C3CCNCC3)c2)cnc1N)c1c(Cl)ccc(F)c1Cl [Crizotinib, reference compound]	34.72
C[C@]12O[C@H](C[C@]1(O)CO)n1c3ccccc3c3c4c(c5c6ccccc6n2c5c31)CNC4=O [Lestaurtinib, reference compound]	45.45
O=S(=O)(NCCNC/C=C/c1ccc(Br)cc1)c1cccc2cnccc12 [H-89, reference compound]	16.07
CN(C)C[C@@H]1CCn2cc(c3ccccc32)C2=C(C(=O)NC2=O)c2cn(c3ccccc23)CCO1 [LY 333531, reference compound]	34.34
CNC(=O)c1cc(Oc2ccc(NC(=O)Nc3ccc(Cl)c(C(F)(F)F)c3)cc2)ccn1 [Sorafenib, reference compound]	5.98
CN[C@@H]1C[C@H]2O[C@@](C)([C@@H]1OC)n1c3ccccc3c3c4c(c5c6ccccc6n2c5c31)C(=O)NC4 [Staurosporine, reference compound]	18.86

---

tested on: Clone V cells
Label 1 (yes) when Toxicity Assay Z-score < -0.5; otherwise 0 (no).

compound	assigned_label
OCC1OC(O)CC(O)C1O (centres unmarked) [Compound 2DG]	1 (yes)
C=CCNC1=C2C[C@@H](C)C[C@H](OC)[C@H](O)[C@@H](C)/C=C(\C)[C@H](OC(N)=O)[C@@H](OC)/C=C\C=C(/C)C(=O)NC(=CC1=O)C2=O [Compound 17-AAG]	1 (yes)
CC(/C=C/C(=O)NO)=C\[C@@H](C)C(=O)c1ccc(N(C)C)cc1 [TRICHOSTATIN A]	0 (no)
C[C@@H](N)[C@H]1CC[C@H](C(=O)Nc2ccncc2)CC1 [Compound Y-27632]	1 (yes)
OCCn1cc(-c2cnc3nnn(Cc4ccc5ncccc5c4)c3n2)cn1 [PF-04217903]	0 (no)
Cc1cc(N2CCOCC2)cc2[nH]c(-c3c(NC[C@@H](O)c4cccc(Cl)c4)cc[nH]c3=O)nc12 [BMS-536924]	1 (yes)
COc1cccc(-c2cc(=O)c3ccccc3o2)c1N [PD 98059]	1 (yes)
Cc1ccc(Nc2nccc(N(C)c3ccc4c(C)n(C)nc4c3)n2)cc1S(N)(=O)=O.Cl [Pazopanib hydrochloride]	1 (yes)
